Target: Serine/threonine-protein kinase pim-2 (Homo sapiens, UniProt Q9P1W9)
Sequence (Q9P1W9 whole entry): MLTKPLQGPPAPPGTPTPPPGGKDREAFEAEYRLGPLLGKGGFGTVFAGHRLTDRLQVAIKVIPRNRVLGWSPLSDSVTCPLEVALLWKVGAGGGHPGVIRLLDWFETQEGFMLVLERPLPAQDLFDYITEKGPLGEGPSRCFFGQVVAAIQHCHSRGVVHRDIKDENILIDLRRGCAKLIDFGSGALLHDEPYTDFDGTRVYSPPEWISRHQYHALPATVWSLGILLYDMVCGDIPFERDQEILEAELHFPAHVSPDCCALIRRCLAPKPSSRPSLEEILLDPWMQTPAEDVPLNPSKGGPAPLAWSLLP

compoundSmiles | IC50
O=C(O)CSc1ncnc2cc(-c3cc4ccccc4s3)sc12 | > 10 µM

---

Biological target: Serine/threonine-protein kinase 17B (Homo sapiens)
Sequence (O94768 whole entry): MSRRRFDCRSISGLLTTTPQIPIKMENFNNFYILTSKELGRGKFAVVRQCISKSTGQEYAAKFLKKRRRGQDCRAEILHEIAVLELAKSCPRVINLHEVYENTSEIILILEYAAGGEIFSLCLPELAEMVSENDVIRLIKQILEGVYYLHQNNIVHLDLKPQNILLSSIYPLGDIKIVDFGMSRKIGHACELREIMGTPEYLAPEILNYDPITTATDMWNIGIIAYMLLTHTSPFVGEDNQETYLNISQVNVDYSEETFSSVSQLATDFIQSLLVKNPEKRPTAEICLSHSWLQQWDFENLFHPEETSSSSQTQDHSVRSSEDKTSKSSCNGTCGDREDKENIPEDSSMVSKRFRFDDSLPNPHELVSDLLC
Assay: Binding affinity to human STK17B assessed as displacement of immobilized ligand by KINOMEscan scanMAX assay relative to control

compoundSmiles | assayedSystem | Kd
O=C(O)CSc1ncnc2cc(-c3cc4ccccc4s3)sc12 | Serine/threonine-protein kinase 17B (Homo sapiens) | 5.6 nM

---

Experiment: Stability in mouse liver microsomes assessed as compound remaining at 0.1 mM in presence of NADPH regeneration system after 30 mins by LC-MS/MS analysis
Assay type: ADME, Microsome
Conditions: read-out: Stabilty
quantityMeasured: remaining at 0.5 h, 100 µM (%)

compoundSmiles | quantitativeReadout
O=C(O)CSc1ncnc2cc(-c3cc4ccccc4s3)sc12 | 63
O=C(O)CSc1ncnc2cc(-c3ccc(C4CC4)cc3)sc12 | 66
COc1ccc(-c2cc3ncnc(SCC(=O)O)c3s2)cc1F | 88
O=C(O)CSc1ncnc2cc(-c3cccc(N4CCOCC4)c3)sc12 | 73
O=C(O)CSc1ncnc2cc(-c3ccc(N4CCOCC4)cc3)sc12 | 63
CSc1ccc(-c2cc3ncnc(SCC(=O)O)c3s2)cc1F | 18
C=Cc1ccc(-c2cc3ncnc(SCC(=O)O)c3s2)cc1 | 38
O=C(O)CSc1ncnc2cc(-c3ccc(F)c(F)c3)sc12 | 95
CSc1ccc(-c2cc3ncnc(SCC(=O)O)c3s2)cc1 | 0

---

Molecular target: Serine/threonine-protein kinase Nek6 (Homo sapiens, UniProt Q9HC98)
Sequence (Q9HC98 whole entry): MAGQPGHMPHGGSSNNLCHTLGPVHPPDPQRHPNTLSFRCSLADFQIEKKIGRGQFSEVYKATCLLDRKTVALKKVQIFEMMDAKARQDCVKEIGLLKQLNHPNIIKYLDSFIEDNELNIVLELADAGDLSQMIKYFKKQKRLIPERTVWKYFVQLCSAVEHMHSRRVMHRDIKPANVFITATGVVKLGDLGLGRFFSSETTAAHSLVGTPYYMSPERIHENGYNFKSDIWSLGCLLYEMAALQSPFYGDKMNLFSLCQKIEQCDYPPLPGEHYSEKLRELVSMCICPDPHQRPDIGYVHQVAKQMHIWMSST

compoundSmiles | assayedSystem | Kd
O=C(O)CSc1ncnc2cc(-c3cc4ccccc4s3)sc12 | Serine/threonine-protein kinase Nek6 (Homo sapiens, UniProt Q9HC98) | > 10 µM

---

Biological target: UniProtKB P08581
Sequence (P08581 whole entry): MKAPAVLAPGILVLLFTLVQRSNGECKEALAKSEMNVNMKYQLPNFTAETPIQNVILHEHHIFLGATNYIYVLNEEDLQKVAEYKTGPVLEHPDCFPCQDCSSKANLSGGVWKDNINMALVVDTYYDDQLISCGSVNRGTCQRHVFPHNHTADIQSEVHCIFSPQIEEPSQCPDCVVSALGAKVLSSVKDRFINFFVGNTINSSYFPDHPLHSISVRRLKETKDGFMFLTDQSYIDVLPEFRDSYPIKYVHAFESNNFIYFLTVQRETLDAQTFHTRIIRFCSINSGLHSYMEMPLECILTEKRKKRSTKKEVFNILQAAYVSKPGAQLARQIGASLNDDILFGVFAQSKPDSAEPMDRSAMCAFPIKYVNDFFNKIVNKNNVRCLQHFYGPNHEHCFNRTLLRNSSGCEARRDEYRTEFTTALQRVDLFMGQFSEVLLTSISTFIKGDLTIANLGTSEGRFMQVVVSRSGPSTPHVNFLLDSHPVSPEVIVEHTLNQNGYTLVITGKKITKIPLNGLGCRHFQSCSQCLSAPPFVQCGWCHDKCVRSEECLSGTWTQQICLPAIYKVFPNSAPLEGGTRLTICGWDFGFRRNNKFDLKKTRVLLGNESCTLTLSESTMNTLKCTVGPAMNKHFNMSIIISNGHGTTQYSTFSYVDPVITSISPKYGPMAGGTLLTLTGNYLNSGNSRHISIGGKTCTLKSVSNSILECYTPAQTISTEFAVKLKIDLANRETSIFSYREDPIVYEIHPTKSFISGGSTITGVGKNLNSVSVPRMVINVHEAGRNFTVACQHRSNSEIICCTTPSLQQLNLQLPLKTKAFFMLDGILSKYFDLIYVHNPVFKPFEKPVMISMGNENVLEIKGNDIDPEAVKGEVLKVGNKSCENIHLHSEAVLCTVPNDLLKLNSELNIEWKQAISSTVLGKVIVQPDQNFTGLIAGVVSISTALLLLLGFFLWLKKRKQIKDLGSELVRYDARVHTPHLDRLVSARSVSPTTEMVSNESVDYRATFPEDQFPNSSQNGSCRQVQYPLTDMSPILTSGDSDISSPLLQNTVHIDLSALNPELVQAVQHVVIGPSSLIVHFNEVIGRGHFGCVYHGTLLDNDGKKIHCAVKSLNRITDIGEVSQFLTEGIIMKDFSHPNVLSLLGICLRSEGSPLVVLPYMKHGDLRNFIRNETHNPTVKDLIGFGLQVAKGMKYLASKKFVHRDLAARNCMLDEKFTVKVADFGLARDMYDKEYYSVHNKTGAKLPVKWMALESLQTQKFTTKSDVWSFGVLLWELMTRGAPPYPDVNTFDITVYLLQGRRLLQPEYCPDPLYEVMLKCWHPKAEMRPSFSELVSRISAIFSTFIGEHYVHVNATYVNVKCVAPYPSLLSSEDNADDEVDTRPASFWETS
pIC50: −log10 of the molar value.
quantityMeasured: pIC50

compoundSmiles | quantityMeasured | result
O=C(O)CSc1ncnc2cc(-c3cc4ccccc4s3)sc12 | pIC50 | < 5.00

---

Target: Serine/threonine-protein kinase 17B (Homo sapiens, UniProt O94768)
Test: Inhibition of N-terminal His-tagged STK17B kinase domain (25 to 329 residues) (unknown origin) expressed in Escherichia coli incubated for 90 mins by Kinase seeker split luciferase assay
So basically: is IC50 under 40 nM? Then TRUE. Not under? Then FALSE.

molecule | classAssignment
N#Cc1ccc(-c2cc3ncnc(SCC(=O)O)c3s2)cc1 | TRUE
CSc1ccc(-c2cc3ncnc(SCC(=O)O)c3s2)cc1 | TRUE
COc1ccccc1-c1cc2ncnc(SCC(=O)O)c2s1 | FALSE
O=C(O)CSc1ncnc2cc(-c3ccc(F)c(F)c3)sc12 | FALSE
O=C(O)CSc1ncnc2cc(-c3ccc(C(F)(F)F)cc3)sc12 | TRUE
O=C(O)CSc1ncnc2sc(-c3cc4ccccc4s3)cc12 | FALSE
C[S+]([O-])c1ccc(-c2cc3ncnc(SCC(=O)O)c3s2)cc1 (stereo not drawn) | TRUE
